- Tested on: cancer cell lines of the NCI-60 assay
- Assay Protocol: NCI one-dose (10 μM) NCI-60 testing
- Assay type: cell-based
- Experimental Parameters: NCI-60 anti-cancer testing in vitro

| Cpd Smiles | Measured On | anti-cancer activity |
| --- | --- | --- |
| N#Cc1cccc(C(=O)/N=C(\Nc2ccc(Cl)cc2)N[C@H](Cn2ccnc2)c2ccc(Cl)cc2Cl)c1 | cancer cell lines of the NCI-60 assay | anti-cancer activity |
| N#Cc1cccc(C(=O)/N=C(\Nc2ccc(Cl)cc2)N[C@@H](Cn2ccnc2)c2ccc(Cl)cc2Cl)c1 | cancer cell lines of the NCI-60 assay | anti-cancer activity |
